LC retention time overview
- assayText: Thermo Scientific Hypersil GOLD aQ, 100 × 2.1 mm, 1.9 µm, 30 °C, 0.3 mL/min, estimated dead time 0.73 min; A: water + 0.01% formic acid + 4 mM ammonium formate; B: methanol + 0.01% formic acid + 4 mM ammonium formate; gradient (min/%B) 0/5 1/5 8/100 12/100
- conditions: stereoisomer not certain
Unit min implied. Number only.

Sample records with LC retention time:
compound: CCOP(=S)(OCC)SCCS(=O)CC (configuration not stated)
resultUnit: min
number: 8.89
--
compound: COC(=O)C(C)N(C(=O)c1ccco1)c1c(C)cccc1C (configuration not stated)
resultUnit: min
number: 9.38
--
compound: COC(=O)Nc1nc2ccccc2[nH]1
resultUnit: min
number: 6.3
--
compound: CCOP(=S)(OCC)Oc1ccc([N+](=O)[O-])cc1
resultUnit: min
number: 9.21
--
compound: CCOP(=S)(OCC)SCCSCC
resultUnit: min
number: 10.4
--
compound: CCOC(=O)NCCOc1ccc(Oc2ccccc2)cc1
resultUnit: min
number: 9.38
--
compound: COP(=S)(OC)Oc1ccc([N+](=O)[O-])cc1
resultUnit: min
number: 9.96
--
compound: CNC(=O)ON=C(CS(C)(=O)=O)C(C)(C)C
resultUnit: min
number: 6.92
--
compound: Cc1ccc(OP(=O)(Oc2ccc(C)cc2)Oc2ccc(C)cc2)cc1
resultUnit: min
number: 11.9
--
compound: CNC(=O)ON=C(CS(C)=O)C(C)(C)C (configuration not stated)
resultUnit: min
number: 6.31

For reference, reported LC retention time for CCCCN(CCCC)SN(C)C(=O)Oc1cccc2c1OC(C)(C)C2 stands at 11.1

// recorded LC retention time for CC(C)N1C(=O)c2ccccc2NS1(=O)=O : 8.26

###

- assayText: Thermo Scientific Hypersil GOLD aQ, 100 × 2.1 mm, 1.9 µm, 30 °C, 0.3 mL/min, estimated dead time 0.73 min; A: water + 0.01% formic acid + 4 mM ammonium formate; B: methanol + 0.01% formic acid + 4 mM ammonium formate; gradient (min/%B) 0/5 1/5 8/100 12/100
- conditions: stereoisomer not certain
Respond with yes (1) for LC retention time values of 9 min and above, no (0) for values below.

molecule: Cc1nn(C)c(Oc2ccccc2)c1C=NOCc1ccc(C(=O)OC(C)(C)C)cc1
classLabel: yes (1)
//
molecule: CC(Cc1ccc(C(C)(C)C)cc1)CN1CC(C)OC(C)C1 (centres undefined)
classLabel: yes (1)
//
molecule: COC(=O)c1ccccc1CS(=O)(=O)NC(=O)Nc1nc(OC)cc(OC)n1
classLabel: yes (1)

Query :: Has CNC(=O)CSP(=O)(OC)OC a recorded LC retention time greater than or equal to 9 min?
Result :: no (0)

Query :: LC retention time >= 9 min for CNC(=O)C=C(C)OP(=O)(OC)OC ?
Result :: no (0)

Query :: Entry C=C(C)C1Cc2c(ccc3c2OC2COc4cc(OC)c(OC)cc4C2C3=O)O1 (centres undefined) : is its LC retention time no less than 9 min?
Result :: yes (1)

Query :: State whether the measured LC retention time reaches 9 min, counting equality as reaching it, for C=CC=CCC1=C(C)C(OC(=O)C2C(C=C(C)C(=O)OC)C2(C)C)CC1=O (centres undefined)
Result :: yes (1)

Query :: Reported LC retention time at or above 9 min? COP(=O)(OC)Oc1ccc([N+](=O)[O-])cc1
Result :: no (0)

Query :: Check if LC retention time >= 9 min (inclusive). Item: CCOc1ccc(C(C)(C)COCc2cccc(Oc3ccccc3)c2)cc1
Result :: yes (1)

Query :: Identify whether the reported LC retention time of the following molecule is 9 min or greater: CCOP(=S)(OCC)Oc1cc(C)nc(C(C)C)n1
Result :: yes (1)

Query :: I'd appreciate it if you could say whether CCCSP(=S)(OCC)Oc1ccc(SC)cc1 (centres undefined) has LC retention time at least equal to 9 min.
Result :: yes (1)
